meta.source: patent US10077261B2

Provide the recorded inhibition at 10 µM for the entries that follow.
target: hFASN enzyme (full length) (Homo sapiens, UniProt P49327)
Construct: 10 μL hFASN enzyme (full length, 300 ng, purified in house); made in house
Sequence (P49327 whole entry): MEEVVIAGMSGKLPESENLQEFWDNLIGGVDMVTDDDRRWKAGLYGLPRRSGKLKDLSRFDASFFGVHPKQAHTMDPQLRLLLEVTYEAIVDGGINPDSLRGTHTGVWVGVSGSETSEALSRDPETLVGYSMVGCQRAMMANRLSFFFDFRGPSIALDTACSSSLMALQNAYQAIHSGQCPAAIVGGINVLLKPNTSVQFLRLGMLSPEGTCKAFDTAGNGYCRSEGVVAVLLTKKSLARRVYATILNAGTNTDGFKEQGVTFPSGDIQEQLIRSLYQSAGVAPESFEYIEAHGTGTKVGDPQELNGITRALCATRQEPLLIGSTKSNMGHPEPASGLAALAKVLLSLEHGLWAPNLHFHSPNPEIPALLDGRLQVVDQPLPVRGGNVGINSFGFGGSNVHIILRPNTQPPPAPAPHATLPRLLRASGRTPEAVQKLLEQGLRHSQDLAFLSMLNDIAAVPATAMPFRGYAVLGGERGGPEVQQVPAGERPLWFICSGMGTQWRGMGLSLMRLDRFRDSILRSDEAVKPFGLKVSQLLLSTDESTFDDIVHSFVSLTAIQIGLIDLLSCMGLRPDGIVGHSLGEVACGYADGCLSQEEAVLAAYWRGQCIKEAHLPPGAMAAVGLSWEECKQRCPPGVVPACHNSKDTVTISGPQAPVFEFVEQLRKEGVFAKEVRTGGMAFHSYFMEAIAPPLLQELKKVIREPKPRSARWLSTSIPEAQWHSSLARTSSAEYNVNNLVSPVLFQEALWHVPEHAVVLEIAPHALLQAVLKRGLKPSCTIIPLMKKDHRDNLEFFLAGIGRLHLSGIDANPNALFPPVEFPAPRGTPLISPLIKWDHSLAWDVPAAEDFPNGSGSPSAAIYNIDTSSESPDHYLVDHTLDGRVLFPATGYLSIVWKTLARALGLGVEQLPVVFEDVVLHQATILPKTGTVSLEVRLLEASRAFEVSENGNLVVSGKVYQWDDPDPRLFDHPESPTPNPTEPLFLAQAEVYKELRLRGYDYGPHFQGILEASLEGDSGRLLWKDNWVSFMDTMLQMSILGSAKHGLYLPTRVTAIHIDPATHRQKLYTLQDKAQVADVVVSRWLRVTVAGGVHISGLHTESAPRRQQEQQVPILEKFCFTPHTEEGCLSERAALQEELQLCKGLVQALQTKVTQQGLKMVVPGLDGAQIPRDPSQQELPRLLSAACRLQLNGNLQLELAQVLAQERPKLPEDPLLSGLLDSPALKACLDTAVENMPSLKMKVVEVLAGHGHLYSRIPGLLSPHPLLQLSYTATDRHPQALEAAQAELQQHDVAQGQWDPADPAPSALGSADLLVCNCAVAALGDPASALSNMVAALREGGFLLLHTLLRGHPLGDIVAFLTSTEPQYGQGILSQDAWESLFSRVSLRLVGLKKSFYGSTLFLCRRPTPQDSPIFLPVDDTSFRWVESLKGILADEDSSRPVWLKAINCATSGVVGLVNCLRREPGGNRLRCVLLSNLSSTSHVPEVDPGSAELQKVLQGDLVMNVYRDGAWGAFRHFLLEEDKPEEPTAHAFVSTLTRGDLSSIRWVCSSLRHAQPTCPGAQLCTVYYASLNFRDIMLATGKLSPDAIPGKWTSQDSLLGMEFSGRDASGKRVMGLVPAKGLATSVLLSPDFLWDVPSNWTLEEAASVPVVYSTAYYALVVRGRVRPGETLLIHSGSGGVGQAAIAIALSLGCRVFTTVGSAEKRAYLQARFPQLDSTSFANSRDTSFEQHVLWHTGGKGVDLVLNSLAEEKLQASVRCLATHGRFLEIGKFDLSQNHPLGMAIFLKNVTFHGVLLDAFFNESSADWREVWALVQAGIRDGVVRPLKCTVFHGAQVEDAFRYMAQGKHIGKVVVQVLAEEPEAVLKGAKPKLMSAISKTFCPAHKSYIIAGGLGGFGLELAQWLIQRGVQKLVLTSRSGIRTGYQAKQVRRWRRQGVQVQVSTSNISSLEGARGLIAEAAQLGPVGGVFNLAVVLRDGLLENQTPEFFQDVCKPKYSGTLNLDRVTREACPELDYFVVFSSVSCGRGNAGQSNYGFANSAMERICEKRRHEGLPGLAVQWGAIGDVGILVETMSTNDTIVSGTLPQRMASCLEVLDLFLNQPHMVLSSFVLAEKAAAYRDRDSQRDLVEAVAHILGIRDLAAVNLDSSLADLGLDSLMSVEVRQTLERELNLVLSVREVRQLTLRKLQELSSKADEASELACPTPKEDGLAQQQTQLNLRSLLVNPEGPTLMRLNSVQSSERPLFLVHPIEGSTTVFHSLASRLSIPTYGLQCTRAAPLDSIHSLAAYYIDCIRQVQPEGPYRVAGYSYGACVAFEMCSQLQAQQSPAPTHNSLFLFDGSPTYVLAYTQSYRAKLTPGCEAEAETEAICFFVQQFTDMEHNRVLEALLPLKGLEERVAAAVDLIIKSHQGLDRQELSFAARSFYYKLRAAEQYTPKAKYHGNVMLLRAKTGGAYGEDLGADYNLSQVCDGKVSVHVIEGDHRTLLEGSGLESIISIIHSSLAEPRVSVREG
assay explanation: Fatty Acid Synthase (FASN) inhibition scintillation proximity assay
Type: biochemical
assay setup: read-out: Human FASN % inhibition @ 10 μM, 10 μM test compound
Numbers only, in %.

[[record]]
molecule = "CC(C)N1CCC2(CC1)N=C(c1ccc(-c3ccc4[nH]ccc4c3)cc1)N(CC1CN(C(=O)C3CC3)C1)C2=O [compound 187]"
test_readout = "inhibition at 10 µM"
numeric_readout = 96.5

[[record]]
molecule = "O=C(C1CC1)N1CC(CN2C(=O)C3(CC3)N=C2c2ccc(-c3ccc(N4CCOCC4)nc3)cc2)C1 [compound 806]"
test_readout = "inhibition at 10 µM"
numeric_readout = -6

[[record]]
molecule = "COc1ccc(-c2ccc(C3=NC4(CC4)C(=O)N3CC3CCN(C(=O)C4CC4)CC3)cc2)cc1 [compound 99]"
test_readout = "inhibition at 10 µM"
numeric_readout = 61.4


// next entry
input: Consider the molecule Cc1cc2cc(-c3ccc(C4=NC5(CCN(CCO)CC5)C(=O)N4C[C@@H]4CCN(C(=O)C5CC5)C4)cc3)ccc2o1 [compound 173] and give its measured inhibition at 10 µM.
output: 97
